# target or system: RnDYRK1A-kd (Rattus norvegicus)
# Construct: RnDYRK1A-kd (Rattus norvegicus, amino acids 1–499 including the kinase domain, recombinant, expressed in bacteria); made in house; host or cells: bacteria
# assay explanation: ADP-Glo kinase inhibition assay, DYRK1A
# Assay type: biochemical
# experimental context: read-out: DYRK1A % residual activity at 10 μM
A collection of molecules and their measured remaining activity at 10 µM
A number alone suffices; assume %.

Answered cases to consult:
CCn1ncc2c(C)c3cnccc3c([N+](=O)[O-])c21 = 13
CCCCc1c2cnccc2c([N+](=O)[O-])c2c1cnn2CC = 16
Cn1ncc2cc3cnccc3c([N+](=O)[O-])c21 = 11
CCn1ncc2cc3cnccc3c(N)c21 = 6

Now, please, on to the next molecule.
Please give measured remaining activity at 10 µM of the following entry: O=[N+]([O-])c1c2ccncc2cc2cn[nH]c12
25

* * *

# target or system: MmCLK1 (Mus musculus)
# Construct: host or cells: bacteria
# Sequence (P22518 whole entry): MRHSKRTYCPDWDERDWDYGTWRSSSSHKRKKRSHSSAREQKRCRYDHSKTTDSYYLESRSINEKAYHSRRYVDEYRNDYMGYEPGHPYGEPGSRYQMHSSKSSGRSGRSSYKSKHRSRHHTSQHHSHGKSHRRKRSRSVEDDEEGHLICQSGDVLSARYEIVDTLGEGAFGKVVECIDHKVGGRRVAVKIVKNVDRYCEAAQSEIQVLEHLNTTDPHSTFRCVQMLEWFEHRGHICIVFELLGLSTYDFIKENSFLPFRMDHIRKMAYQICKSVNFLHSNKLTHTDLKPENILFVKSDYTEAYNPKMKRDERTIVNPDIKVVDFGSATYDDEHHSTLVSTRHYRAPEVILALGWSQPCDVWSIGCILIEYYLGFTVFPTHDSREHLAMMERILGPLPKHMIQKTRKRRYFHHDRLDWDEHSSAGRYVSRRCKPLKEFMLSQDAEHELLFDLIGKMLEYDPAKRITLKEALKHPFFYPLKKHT
# assay explanation: ADP-Glo kinase inhibition assay, CLK1
# Format: biochemical
# experimental context: assumed on the basis of % of inhibition at 1 μM (less than 50%); read-out: CLK1 IC50 (assumed)
measured quantity: IC50

Give the value of IC50 reported for the following: O=[N+]([O-])c1c2ccncc2cc2cn[nH]c12 [1a’]
> 1 µM

* * *

# target or system: CDK9/CyclinT (Homo sapiens, UniProt P50750)
# Sequence (O60563 whole entry): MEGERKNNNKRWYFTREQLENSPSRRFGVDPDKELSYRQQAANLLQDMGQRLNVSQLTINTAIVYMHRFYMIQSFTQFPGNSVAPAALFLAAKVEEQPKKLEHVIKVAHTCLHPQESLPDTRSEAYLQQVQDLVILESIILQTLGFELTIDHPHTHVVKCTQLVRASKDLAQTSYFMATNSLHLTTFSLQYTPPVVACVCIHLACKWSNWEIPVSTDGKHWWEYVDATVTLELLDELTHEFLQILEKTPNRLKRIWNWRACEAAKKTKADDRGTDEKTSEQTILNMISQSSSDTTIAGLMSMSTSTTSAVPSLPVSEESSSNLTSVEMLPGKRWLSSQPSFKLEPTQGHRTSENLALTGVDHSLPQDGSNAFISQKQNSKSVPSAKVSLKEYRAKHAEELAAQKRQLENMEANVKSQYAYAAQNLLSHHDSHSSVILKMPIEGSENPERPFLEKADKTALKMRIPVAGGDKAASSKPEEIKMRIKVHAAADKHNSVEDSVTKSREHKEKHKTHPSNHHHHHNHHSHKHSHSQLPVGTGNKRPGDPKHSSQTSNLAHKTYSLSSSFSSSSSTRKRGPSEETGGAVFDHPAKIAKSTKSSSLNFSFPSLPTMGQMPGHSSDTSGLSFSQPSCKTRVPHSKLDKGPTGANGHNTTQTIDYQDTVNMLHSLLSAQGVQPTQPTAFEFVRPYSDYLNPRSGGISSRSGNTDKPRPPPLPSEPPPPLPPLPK
# Sequence (P50750 whole entry): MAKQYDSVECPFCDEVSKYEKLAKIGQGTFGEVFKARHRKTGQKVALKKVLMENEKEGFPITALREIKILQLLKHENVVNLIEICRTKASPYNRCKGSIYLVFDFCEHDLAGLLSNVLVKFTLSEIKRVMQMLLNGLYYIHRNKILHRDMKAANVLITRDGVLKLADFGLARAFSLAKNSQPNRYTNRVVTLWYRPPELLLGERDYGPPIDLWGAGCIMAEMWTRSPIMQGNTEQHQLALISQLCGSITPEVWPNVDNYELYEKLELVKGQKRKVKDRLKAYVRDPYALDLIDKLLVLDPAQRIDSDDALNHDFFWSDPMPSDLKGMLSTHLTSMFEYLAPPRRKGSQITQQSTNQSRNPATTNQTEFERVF
# assay explanation: ADP-Glo kinase inhibition assay, CDK9/CyclinT
# experimental context: 10 μM ATP, duplicate
We begin with a simple list: items and their reported pIC50.
// returns pIC50 (minus log10 of molar concentration), number only

The cases that follow already have their pIC50 on record.
CCn1ncc2c(C)c3cnccc3c([N+](=O)[O-])c21 = 6.10
CCn1ncc2cc3cnccc3c([N+](=O)[O-])c21 = 6.37
Nc1c2ccncc2cc2cn[nH]c12 [Compound 2a, 1-H-pyrazolo[3,4-g]isoquinolin-9-amine] = 6.37
CCn1ncc2c(C3CC3)c3cnccc3c([N+](=O)[O-])c21 = 6.58

Write down pIC50 measured for item Cn1ncc2cc3cnccc3c(N)c21
6.24

Let me know recorded pIC50 for CCCc1c2cnccc2c([N+](=O)[O-])c2c1cnn2CC , thanks.
6.49

* * *

# target or system: Haspin-kd (human, kinase domain, amino acids 470–798) (Homo sapiens)
# Construct: Haspin-kd (human, kinase domain, amino acids 470–798, recombinant, expressed in bacteria); host or cells: bacteria
# Sequence (Q8TF76 470-798): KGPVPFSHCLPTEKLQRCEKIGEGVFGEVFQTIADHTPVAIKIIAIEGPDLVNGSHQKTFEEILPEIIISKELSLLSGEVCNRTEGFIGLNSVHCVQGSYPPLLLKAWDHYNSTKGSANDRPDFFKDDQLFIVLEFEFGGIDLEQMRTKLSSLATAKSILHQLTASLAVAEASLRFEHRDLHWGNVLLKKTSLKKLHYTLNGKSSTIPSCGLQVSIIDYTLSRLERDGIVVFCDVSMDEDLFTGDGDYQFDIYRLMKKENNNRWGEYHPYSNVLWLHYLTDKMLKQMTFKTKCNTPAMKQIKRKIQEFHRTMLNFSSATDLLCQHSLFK
# assay explanation: ADP-Glo kinase inhibition assay, Haspin
# Type: biochemical
# experimental context: read-out: Haspin % residual activity at 10 μM
# Protocol: Kinase enzymatic activities were assayed in 384 well plates using the ADP-GloTM assay kit (Promega, Madison, WI, USA) according to the manufacturer’s guidance. […] The transmitted signal was measured using the Envision (Perkin Elmer, Waltham, MA, USA) microplate luminometer and expressed in relative light unit (RLU). […] Kinase activities are expressed in the percentage of maximal activity, i.e., measured in the absence of an inhibitor. […]
Measured remaining activity at 10 µM, listed per entry for reference.
Output spec: scalar in %, unitless text.

Take a look at these entries with their results.
CCn1ncc2cc3cncc(Br)c3c([N+](=O)[O-])c21 = 23
CCn1ncc2c(C)c3cnccc3c([N+](=O)[O-])c21 = 8
CCCCc1c2cnccc2c([N+](=O)[O-])c2c1cnn2CC = 19
CCn1ncc2c(C3CC3)c3cnccc3c([N+](=O)[O-])c21 = 12
CCn1ncc2cc3cnccc3c(N)c21 = 3

Supply measured remaining activity at 10 µM of O=[N+]([O-])c1c2ccncc2cc2cn[nH]c12 in your reply.
23

Assign remaining activity at 10 µM to the following record: Nc1c2ccncc2cc2cn[nH]c12 [Compound 2a, 1-H-pyrazolo[3,4-g]isoquinolin-9-amine]
8

Return reported remaining activity at 10 µM. Input compound: CCn1ncc2cc3cnccc3c([N+](=O)[O-])c21
15
